Data credit: patent US11311522B1

- Target: hERG (Homo sapiens, UniProt Q12809)
- Construct: expressed in transfected cells; host or cells: CHO-K1
- Sequence (Q12809 whole entry): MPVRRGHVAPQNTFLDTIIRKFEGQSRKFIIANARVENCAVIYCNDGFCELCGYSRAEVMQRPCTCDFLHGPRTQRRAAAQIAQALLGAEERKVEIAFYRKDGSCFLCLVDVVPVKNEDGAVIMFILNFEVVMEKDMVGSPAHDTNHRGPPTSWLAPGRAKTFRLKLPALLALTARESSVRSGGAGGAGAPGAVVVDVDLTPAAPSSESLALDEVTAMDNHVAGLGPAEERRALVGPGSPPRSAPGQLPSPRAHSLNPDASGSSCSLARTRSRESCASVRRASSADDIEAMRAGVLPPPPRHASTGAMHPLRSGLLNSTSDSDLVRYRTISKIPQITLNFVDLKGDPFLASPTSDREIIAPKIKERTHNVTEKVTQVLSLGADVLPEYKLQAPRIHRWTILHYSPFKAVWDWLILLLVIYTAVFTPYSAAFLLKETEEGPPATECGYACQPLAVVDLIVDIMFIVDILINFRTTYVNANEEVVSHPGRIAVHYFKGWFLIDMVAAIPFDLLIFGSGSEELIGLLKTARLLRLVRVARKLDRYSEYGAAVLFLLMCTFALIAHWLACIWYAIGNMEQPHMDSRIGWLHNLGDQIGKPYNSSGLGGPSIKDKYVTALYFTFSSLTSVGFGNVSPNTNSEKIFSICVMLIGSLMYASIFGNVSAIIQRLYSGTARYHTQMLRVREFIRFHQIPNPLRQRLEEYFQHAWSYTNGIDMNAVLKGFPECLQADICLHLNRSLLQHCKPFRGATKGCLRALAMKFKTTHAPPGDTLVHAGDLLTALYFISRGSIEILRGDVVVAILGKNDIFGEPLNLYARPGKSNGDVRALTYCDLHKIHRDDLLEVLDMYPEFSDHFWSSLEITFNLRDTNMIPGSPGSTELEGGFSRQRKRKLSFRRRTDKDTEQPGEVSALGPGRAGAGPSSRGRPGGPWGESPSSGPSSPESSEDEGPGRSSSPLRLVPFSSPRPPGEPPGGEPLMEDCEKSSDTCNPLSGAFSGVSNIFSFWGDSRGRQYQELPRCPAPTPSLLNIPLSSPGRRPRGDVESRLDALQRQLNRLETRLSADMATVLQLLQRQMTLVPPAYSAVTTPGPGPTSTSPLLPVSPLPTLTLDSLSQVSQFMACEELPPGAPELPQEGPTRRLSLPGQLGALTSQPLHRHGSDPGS
- Protocol Description: hERG PatchXpress assay
- Type: cell-based
- Setup Conditions: doses up to 30 μM
Recorded Metric: IC50 (µM)
Report the figure in µM without appending any unit label.

What IC50 appears in the records for this compound with hERG (Homo sapiens, UniProt Q12809)? CC(C)c1ccc(CC(=O)N[C@H](C)c2ccc(OCC(F)(F)F)cn2)cc1 28

* * *

- Protocol Description: Cardiovascular telemetry in conscious dogs, oral
- Setup Conditions: dog, in vivo
Recorded Metric: NOAEL (mg/kg)
Respond numerically; units are mg/kg and should not be typed.

Bench note: what NOAEL did CC(C)c1ccc(CC(=O)N[C@H](C)c2ccc(OCC(F)(F)F)cn2)cc1 show? 20

* * *

- Protocol Description: in vivo
- Setup Conditions: female, Beagle, dog, CSF, po, 300 mg/kg
Recorded Metric: concentration at 24 h
Answer as a quantity: numeral, then unit.

concentration at 24 h for C=C(C)c1ccc(CC(=O)N[C@H](C)c2ccc(OCC(F)(F)F)cn2)cc1 [M01] ? 112 nM

* * *

- Protocol Description: In vitro plasma protein binding, dog
- Assay type: in vitro ADME
- Setup Conditions: read-out: Free fraction in dog plasma
Recorded Metric: fraction unbound

fraction unbound lookup needed for C=C(C)c1ccc(CC(=O)N[C@H](C)c2ccc(OCC(F)(F)F)cn2)cc1 [M01] , thanks. 0.003

Name the recorded fraction unbound for CC(C)c1ccc(CC(=O)N[C@H](C)c2ccc(OCC(F)(F)F)cn2)cc1 [CX-8998] . 0.003

Which fraction unbound reading was recorded for the compound C[C@@H](NC(=O)Cc1ccc(C(C)(C)O)cc1)c1ccc(OCC(F)(F)F)cn1 [M02] ? 0.18

* * *

- Protocol Description: T-CALM: plasma concentrations by 5-in-1 LC/MS/MS
- Type: in vivo, human
- Setup Conditions: Visit 4 (Day 28), 10 mg BID, trough
Recorded Metric: Plasma concentration, mean (nM)
Answer with a number only, understood to be in nM.

Field request: Plasma concentration, mean | item: CC(CO)c1ccc(CC(=O)N[C@H](C)c2ccc(OCC(F)(F)F)cn2)cc1 (stereo partly shown) 5.6

Entry C[C@@H](NC(=O)Cc1ccc(C(C)(C)O)cc1)c1ccc(OCC(F)(F)F)cn1 : reported Plasma concentration, mean = ? 406

Look up Plasma concentration, mean for this compound: CC(C(=O)O)c1ccc(CC(=O)N[C@H](C)c2ccc(OCC(F)(F)F)cn2)cc1 (stereo partly shown) 20

For the compound C=C(C)c1ccc(CC(=O)N[C@H](C)c2ccc(OCC(F)(F)F)cn2)cc1 , what Plasma concentration, mean is on record? 1023

* * *

Give AUC for every item shown.
- Protocol Description: Pharmacokinetics in dogs
- Format: in vivo, dog
- Setup Conditions: male, dog, plasma, po, 0.5 mg/kg; read-out: AUC24
API: value field is a number in µM·h; no unit string.

Requested field: AUC. Item: C[C@@H](NC(=O)Cc1ccc(C(C)(C)O)cc1)c1ccc(OCC(F)(F)F)cn1 7.8

// returns reported AUC for input C=C(C)c1ccc(CC(=O)N[C@H](C)c2ccc(OCC(F)(F)F)cn2)cc1 1.4

* * *

- Protocol Description: In vitro plasma protein binding, rat
- Format: in vitro ADME
- Setup Conditions: rat plasma, read-out: In vitro plasma protein binding (converted)
Recorded Metric: fraction unbound
Please reply with the number alone, leaving off any unit.

Param item = C[C@@H](NC(=O)Cc1ccc(C(C)(C)O)cc1)c1ccc(OCC(F)(F)F)cn1 [M02] ; retrieve measured fraction unbound. 0.29

Using the record for C=C(C)c1ccc(CC(=O)N[C@H](C)c2ccc(OCC(F)(F)F)cn2)cc1 [M01] , report its fraction unbound. 0.004
